Biological target: Luciferin 4-monooxygenase (Photinus pyralis) (UniProt P08659)
Sequence (P08659 whole entry, looked up): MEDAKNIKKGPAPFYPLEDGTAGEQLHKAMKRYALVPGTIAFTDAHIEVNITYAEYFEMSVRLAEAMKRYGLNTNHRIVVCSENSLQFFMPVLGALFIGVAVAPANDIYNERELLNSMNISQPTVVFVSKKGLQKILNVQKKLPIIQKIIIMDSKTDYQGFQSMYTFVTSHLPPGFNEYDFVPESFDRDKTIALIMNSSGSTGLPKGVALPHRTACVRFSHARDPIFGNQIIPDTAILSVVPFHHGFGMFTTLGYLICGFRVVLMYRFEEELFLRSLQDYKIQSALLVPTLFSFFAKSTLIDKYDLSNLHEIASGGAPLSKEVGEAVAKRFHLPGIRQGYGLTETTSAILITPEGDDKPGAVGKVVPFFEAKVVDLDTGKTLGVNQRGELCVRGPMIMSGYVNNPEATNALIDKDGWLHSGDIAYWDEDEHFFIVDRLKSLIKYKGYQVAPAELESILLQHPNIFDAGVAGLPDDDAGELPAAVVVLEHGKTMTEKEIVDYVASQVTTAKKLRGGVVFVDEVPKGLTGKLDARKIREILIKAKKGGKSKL
Test: qHTS assay to identify small molecule inhibitors of firefly luciferase (AID 1224835); note: nearly all actives have a fitted effect of over 25% in size
Conditions: purified P. pyralis luciferase, luminescence inhibition; series mostly up to 115 µM
Inconclusive results are not listed. Active and inactive are the calls of the source. Calls come from the whole dose curve; as a rule, active = well fitted inhibition curve with a large enough effect in the repeat runs; inconclusive = weak or mixed curves; inactive = flat fitted curve, though single readings scatter.
Returns: one label drawn from 1 for active, 0 for inactive

Compound: O=C(OC1C[C@H]2CC[C@@H](C1)[N+]21CCCC1)C(O)(c1ccccc1)c1ccccc1 (some centres undefined)
Category label: 0
//
Compound: CC(=O)Nc1ccn(C2COC(COC(=O)c3ccccc3)O2)c(=O)n1 (centres undefined)
Category label: 0

Prompt: Recorded call for COC(=O)Cc1cccc2ccccc12 ?
Completion: 0

Prompt: Recorded call for CC(O)C(C)O (centres undefined) ?
Completion: 0

Prompt: Recorded call for CC(C)C/C=C(\C=O)c1ccccc1 ?
Completion: 0

Prompt: Recorded call for CC(=O)c1cccnc1 ?
Completion: 0

Prompt: Recorded call for Nc1ccc(-c2ccc(F)cc2)cc1 ?
Completion: 1

Prompt: Recorded call for CC(C)NC(=O)c1ccccc1N ?
Completion: 0

Prompt: Recorded call for CCc1ccc2c(c1)C(=O)c1ccccc1C2=O ?
Completion: 1

Prompt: Recorded call for CC(C(=O)O)c1ccc(/C=C2\CCCCC2=O)cc1 (centres undefined) ?
Completion: 1

Prompt: Recorded call for COc1ccc(/C(C)=C/C(=O)O)c(OC)c1 ?
Completion: 0

Prompt: Recorded call for CCOC(C)OCC ?
Completion: 0

Prompt: Recorded call for O=[N+]([O-])c1cccc(I)c1 ?
Completion: 0

Prompt: Recorded call for CC(C)CCCCCOC(=O)CS ?
Completion: 0

----------
Target: Luciferin 4-monooxygenase (Photinus pyralis) (UniProt P08659)
Assay: qHTS assay to identify small molecule inhibitors of firefly luciferase (AID 1224835); note: nearly all actives have a fitted effect of over 25% in size
Settings: purified P. pyralis luciferase, luminescence inhibition; series mostly up to 115 µM
Excerpt: U.S. Tox21 Program National Center for Advancing Translational Sciences [NCATS] NIH Chemical Genomics Center [NCGC] U.S. Environmental Protection Agency [EPA] National Institutes of Environmental Health Sciences [NIEHS] National Toxicology Program [NTP] U.S. Food and Drug Administration [FDA] Tox21 Assay Overview: Firefly (Photinus pyralis) luciferase is one of the most commonly used transcriptional reporters. […]
Inconclusive results are not listed. Active and inactive are the calls of the source. Calls follow the shape of the dose curve; as a rule, active = well fitted inhibition curve with a large enough effect in the repeat runs; inconclusive = weak or mixed curves; inactive = flat fitted curve, though single readings scatter.
Returns: one label drawn from true (1) for active, false (0) for inactive

Example entries begin here.
Molecule: CCC1=C(C)CN(C(=O)NCCc2ccc(S(=O)(=O)NC(=O)NC3CCC(C)CC3)cc2)C1=O (stereo unspecified)
Category label: false (0)
//
Molecule: CC1(C)CC(O)CC(C)(C)N1[O]
Category label: false (0)
//
Molecule: CCCCCCCCCCCCN1CCOCC1
Category label: false (0)
//
Molecule: CCC(C)CCCC(C)(C)O (stereo unspecified)
Category label: false (0)
//
Molecule: O=C(c1ccc(Cl)cc1)c1ccc(Cl)cc1
Category label: false (0)
//
Molecule: O=C1c2ccccc2C(=O)C1c1ccc2cc(S(=O)(=O)O)cc(S(=O)(=O)O)c2n1
Category label: true (1)
//
Molecule: CC1=C(C)C(=O)C(C(CCCCCC(=O)O)c2ccccc2)=C(C)C1=O (stereo unspecified)
Category label: false (0)
//
Molecule: C[C@H](N)C(=O)N[C@@H](C)C(=O)NC1[C@H]2CN(c3nc4c(cc3F)c(=O)c(C(=O)O)cn4-c3ccc(F)cc3F)C[C@@H]12 (stereo partly specified)
Category label: false (0)
//
Molecule: O=C(O)c1cc(C(=O)O)c(C(=O)O)cc1C(=O)O
Category label: false (0)
//
Molecule: CC1=C(C)C(=O)C(CCCCC#CCCCC#CCO)=C(C)C1=O
Category label: false (0)

Prompt: Recorded call for CS(C)=O ?
Completion: false (0)

Prompt: Recorded call for CC/C=C/CCO ?
Completion: false (0)
